- Test target: EP4 (Homo sapiens)
- Sequence (P35408 whole entry): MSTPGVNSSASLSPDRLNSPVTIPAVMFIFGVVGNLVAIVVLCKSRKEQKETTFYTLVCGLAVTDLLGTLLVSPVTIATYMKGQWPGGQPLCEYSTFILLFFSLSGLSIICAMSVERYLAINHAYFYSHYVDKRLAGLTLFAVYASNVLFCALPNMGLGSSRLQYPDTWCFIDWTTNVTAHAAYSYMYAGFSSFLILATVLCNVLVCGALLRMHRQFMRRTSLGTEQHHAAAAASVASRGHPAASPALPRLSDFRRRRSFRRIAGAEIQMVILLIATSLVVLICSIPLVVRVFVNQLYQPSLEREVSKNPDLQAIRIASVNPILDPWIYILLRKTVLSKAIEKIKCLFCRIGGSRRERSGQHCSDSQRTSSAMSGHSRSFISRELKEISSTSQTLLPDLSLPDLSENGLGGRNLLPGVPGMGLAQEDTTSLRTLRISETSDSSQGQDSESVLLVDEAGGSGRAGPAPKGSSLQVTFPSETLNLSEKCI
- Assay procedure: EP4 flipr functional assay
- Format: cell-based
Measured endpoint: EC50

input: Which EC50 value belongs to CCCCCCc1ccc(N2C(=O)COC2CCCc2ccc(C(=O)O)s2)cc1 (centres unmarked) [Example 8] ?
output: 12.6 µM

input: Another compound to check: CCCCCC(O)c1ccc(N2C(=O)CSC2CCCc2ccc(C(=O)O)s2)cc1 (centres unmarked) [Example 1]
output: > 10 µM
